# system-tested: Protein kinase C delta type (Homo sapiens)
# Sequence (Q05655 whole entry): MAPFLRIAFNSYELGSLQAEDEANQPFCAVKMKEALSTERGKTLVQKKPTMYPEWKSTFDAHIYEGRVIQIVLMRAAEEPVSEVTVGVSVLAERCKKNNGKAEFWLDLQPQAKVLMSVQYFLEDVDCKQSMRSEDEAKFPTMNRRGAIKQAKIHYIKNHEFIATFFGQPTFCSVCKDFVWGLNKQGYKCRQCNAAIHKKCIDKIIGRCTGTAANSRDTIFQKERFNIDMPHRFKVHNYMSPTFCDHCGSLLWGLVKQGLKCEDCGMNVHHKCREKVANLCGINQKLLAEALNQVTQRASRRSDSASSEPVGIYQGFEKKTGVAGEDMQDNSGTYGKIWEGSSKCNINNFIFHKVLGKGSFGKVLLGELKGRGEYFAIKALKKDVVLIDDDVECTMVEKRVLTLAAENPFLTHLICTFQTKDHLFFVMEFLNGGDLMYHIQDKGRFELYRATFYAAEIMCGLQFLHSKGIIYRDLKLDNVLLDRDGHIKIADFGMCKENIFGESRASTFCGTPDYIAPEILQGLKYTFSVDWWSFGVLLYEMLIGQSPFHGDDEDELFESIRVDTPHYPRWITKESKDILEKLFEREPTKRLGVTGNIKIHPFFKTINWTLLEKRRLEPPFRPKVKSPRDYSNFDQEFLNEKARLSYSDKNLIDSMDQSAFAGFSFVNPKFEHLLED
# assay-remarks: Binding affinity to PKCdelta C1B subdomain after 1 hr by fluorescence quenching analysis
pEC50: −log10 of the molar value.
assay-endpoint: pEC50

CCCCOc1ccc(/C=C/c2cc(/C=C/c3ccc(O)c(OC)c3)n[nH]2)cc1OC; 4.66

a: COc1cc(/C=C/c2cc(/C=C/c3ccc(O)c(OC)c3)on2)ccc1O
b: CCCCOc1ccc(/C=C/c2cc(/C=C/c3ccc(OCCCC)c(OC)c3)on2)cc1OC
-- ask So which one has the bigger pEC50 here, a or b ? Field: selected label. Fill in the label of the entry you choose.
-- reply a

----------
# system-tested: UniProt Q04759
# Sequence (Q04759 whole entry): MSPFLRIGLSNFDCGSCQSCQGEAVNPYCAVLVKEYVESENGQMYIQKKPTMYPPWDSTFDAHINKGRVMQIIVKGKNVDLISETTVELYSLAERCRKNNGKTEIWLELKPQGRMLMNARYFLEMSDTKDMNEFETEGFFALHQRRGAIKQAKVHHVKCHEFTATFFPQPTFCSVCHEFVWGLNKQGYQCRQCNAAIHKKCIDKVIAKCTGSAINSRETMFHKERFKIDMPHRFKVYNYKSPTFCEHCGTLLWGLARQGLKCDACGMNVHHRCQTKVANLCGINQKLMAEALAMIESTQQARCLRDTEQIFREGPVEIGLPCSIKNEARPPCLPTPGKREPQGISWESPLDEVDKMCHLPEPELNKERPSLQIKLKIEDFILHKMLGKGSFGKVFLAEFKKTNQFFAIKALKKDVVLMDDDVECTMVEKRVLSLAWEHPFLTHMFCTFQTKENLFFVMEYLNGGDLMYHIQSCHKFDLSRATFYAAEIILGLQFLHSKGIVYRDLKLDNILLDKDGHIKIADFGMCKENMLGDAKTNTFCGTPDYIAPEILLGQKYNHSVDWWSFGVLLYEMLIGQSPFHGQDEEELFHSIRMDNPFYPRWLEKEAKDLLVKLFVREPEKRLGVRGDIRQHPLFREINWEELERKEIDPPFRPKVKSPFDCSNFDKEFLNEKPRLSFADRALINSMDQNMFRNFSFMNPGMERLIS
# assay-remarks: Binding affinity to PKCtheta C1B subdomain after 1 hr by fluorescence quenching analysis
assay-endpoint: EC50 (µM)

CCCCOc1ccc(/C=C/c2cc(/C=C/c3ccc(OCCCC)c(OC)c3)on2)cc1OC; 7.14

A: COc1cc(/C=C/c2cc(/C=C/c3ccc(O)c(OC)c3)on2)ccc1O
B: COc1cc(/C=C/c2cc(/C=C/c3ccc(O)c(OC)c3)[nH]n2)ccc1O [CURCUMIN PYRAZOLE]
C: CCCCOc1ccc(/C=C/c2cc(/C=C/c3ccc(O)c(OC)c3)n[nH]2)cc1OC
-- ask Ascending sort, EC50. # the answer lists labels in the order requested
-- reply A, B, C
(A: 3.16 µM, B: 7.25 µM, C: 15.8 µM)
